# assaySummary: Solubility of the crystalline form in buffers, SGF, FaSSIF, FeSSIF and water at 37° C. (HPLC; XRPD of undissolved solid)
# Assay type: physicochemical
# conditionsUsed: water, 37 °C, thermodynamic from solid
readoutName: solubility at 24 h

compound="C[C@@H](N)COc1ccc(-c2cnc3ccc(N[C@H](C)c4cccc(F)c4)nn23)cc1 [crystalline form A of Compound 1 adipate]" readoutname="solubility at 24 h" reportedresult="1.41 mg/mL"

----------
# assaySummary: Dynamic Vapor Sorption (DVS), hygroscopicity
# Assay type: physicochemical
readoutName: crystalline form (XRPD) of the sample before and after the DVS test

compound="C[C@@H](N)COc1ccc(-c2cnc3ccc(N[C@H](C)c4cccc(F)c4)nn23)cc1 [crystalline form A of Compound 1 adipate]" reportedresult="did not change"
compound="C[C@@H](N)COc1ccc(-c2cnc3ccc(N[C@H](C)c4cccc(F)c4)nn23)cc1 [crystalline form A of Compound 1 free base]" reportedresult="did not change"
compound="C[C@@H](N)COc1ccc(-c2cnc3ccc(N[C@H](C)c4cccc(F)c4)nn23)cc1 [crystalline form D of Compound 1 free base]" reportedresult="did not change"

From: patent US20240309007A1
